Entries and their measured residual activity follow.
Target: Serine/threonine-protein kinase BRSK2 (Homo sapiens) (UniProt Q8IWQ3)
Sequence (whole entry): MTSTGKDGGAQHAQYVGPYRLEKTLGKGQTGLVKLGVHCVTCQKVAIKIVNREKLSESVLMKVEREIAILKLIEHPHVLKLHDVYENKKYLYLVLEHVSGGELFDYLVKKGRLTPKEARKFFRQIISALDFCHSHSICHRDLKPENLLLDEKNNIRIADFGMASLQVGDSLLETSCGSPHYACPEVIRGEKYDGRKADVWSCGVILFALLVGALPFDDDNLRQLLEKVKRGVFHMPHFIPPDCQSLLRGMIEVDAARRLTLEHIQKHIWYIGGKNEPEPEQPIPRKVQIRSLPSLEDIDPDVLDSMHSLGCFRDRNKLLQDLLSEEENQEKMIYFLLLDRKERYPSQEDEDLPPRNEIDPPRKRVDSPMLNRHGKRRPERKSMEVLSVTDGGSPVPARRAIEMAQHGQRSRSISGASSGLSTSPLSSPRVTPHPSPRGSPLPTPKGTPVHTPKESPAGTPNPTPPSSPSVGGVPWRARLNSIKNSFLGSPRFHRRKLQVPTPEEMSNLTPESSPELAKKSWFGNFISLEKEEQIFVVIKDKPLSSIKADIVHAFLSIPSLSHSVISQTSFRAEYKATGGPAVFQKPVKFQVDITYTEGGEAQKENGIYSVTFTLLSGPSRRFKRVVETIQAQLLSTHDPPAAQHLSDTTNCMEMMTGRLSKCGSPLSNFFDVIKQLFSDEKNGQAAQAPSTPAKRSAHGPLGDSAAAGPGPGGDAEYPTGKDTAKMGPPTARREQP
Details: at 1 µM
Express the result in % but write the number alone.

Guide cases for residual activity, answers given:
• O=[N+]([O-])c1ccc(-c2nc(-c3ccc(F)cc3)c(-c3ccncc3)[nH]2)cc1 = 118
• Oc1n[nH]c2nnc(-c3c(-c4ccccc4)nn4ccccc34)cc12 = 112
• Oc1ccc(Nc2nc(-c3ccc(Cl)cc3)cs2)cc1 = 125
• c1ccc2c(-c3ccncc3)c[nH]c2c1 = 106
• Cc1cc(Nc2nc(-c3ccccc3)nc3ccccc23)n[nH]1 = 59

// recorded residual activity for "O=C1c2ccccc2-[n+]2ccc3c([nH]c4ccccc43)c21" : 112

// recorded residual activity for "Cn1cnc2cc3c(Nc4cccc(Br)c4)ncnc3cc21" : 91
